B1: KIAA1161 (parent)
chain: FMPAMQFSIPPWRYDAEVVAIAQK

# Variants of: B1
# assay-protocol: protein stability index of a GFP-peptide fusion (GPS, HEK-293T) (PSI 1-6); higher = more stable;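 also: lentivirally expressed fusions sorted by FACS into six bins by GFP to DsRed ratio, PSI derived from sequencing read proportions per bin multiplied by bin number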
# cond: c terminus: a fixed tail appended
quantity-name: protein stability index

{"columns": ["mutation-key", "recorded-number"],
 "data": [
  ["S8P", 2.1],
  ["Y14M", 2.25],
  ["A20E", 2.42],
  ["S8C", 1.07],
  ["M5E", 2.81],
  ["R13A", 2.04],
  ["A20V", 1.91],
  ["M2Q", 2.71],
  ["I9W", 3.43],
  ["F7T", 2.24],
  ["A4P", 2.29],
  ["F7A", 1.97],
  ["Q23A", 2.23],
  ["I21N", 2.11],
  ["E17F", 2.13],
  ["W12P", 2.74],
  ["K24T", 1.63],
  ["W12E", 2.08],
  ["A22V", 2.01],
  ["K24H", 2.54],
  ["P11R", 1.48],
  ["R13F", 1.1],
  ["M2C", 1.97],
  ["A20S", 1.59],
  ["P11G", 1.48],
  ["P10M", 1],
  ["P3M", 4],
  ["E17A", 1.2],
  ["Q6D", 1.92],
  ["P11Y", 2.28],
  ["E17P", 1.48],
  ["E17Q", 3.67],
  ["V18I", 2.06],
  ["A20Q", 2.41],
  ["A4C", 1.47],
  ["A20M", 1.32],
  ["R13D", 2.67],
  ["Q6A", 2.33],
  ["A20R", 1.98],
  ["P3N", 2.39],
  ["A4N", 1.56],
  ["I21V", 1.68],
  ["R13K", 2.21],
  ["I21F", 2.52],
  ["M2E", 2.83],
  ["A22Y", 1.23]
]}
